target.under.test: human NaV1.8 (Homo sapiens (Human), UniProt Q9Y5Y9)
Sequence (Q9Y5Y9 whole entry): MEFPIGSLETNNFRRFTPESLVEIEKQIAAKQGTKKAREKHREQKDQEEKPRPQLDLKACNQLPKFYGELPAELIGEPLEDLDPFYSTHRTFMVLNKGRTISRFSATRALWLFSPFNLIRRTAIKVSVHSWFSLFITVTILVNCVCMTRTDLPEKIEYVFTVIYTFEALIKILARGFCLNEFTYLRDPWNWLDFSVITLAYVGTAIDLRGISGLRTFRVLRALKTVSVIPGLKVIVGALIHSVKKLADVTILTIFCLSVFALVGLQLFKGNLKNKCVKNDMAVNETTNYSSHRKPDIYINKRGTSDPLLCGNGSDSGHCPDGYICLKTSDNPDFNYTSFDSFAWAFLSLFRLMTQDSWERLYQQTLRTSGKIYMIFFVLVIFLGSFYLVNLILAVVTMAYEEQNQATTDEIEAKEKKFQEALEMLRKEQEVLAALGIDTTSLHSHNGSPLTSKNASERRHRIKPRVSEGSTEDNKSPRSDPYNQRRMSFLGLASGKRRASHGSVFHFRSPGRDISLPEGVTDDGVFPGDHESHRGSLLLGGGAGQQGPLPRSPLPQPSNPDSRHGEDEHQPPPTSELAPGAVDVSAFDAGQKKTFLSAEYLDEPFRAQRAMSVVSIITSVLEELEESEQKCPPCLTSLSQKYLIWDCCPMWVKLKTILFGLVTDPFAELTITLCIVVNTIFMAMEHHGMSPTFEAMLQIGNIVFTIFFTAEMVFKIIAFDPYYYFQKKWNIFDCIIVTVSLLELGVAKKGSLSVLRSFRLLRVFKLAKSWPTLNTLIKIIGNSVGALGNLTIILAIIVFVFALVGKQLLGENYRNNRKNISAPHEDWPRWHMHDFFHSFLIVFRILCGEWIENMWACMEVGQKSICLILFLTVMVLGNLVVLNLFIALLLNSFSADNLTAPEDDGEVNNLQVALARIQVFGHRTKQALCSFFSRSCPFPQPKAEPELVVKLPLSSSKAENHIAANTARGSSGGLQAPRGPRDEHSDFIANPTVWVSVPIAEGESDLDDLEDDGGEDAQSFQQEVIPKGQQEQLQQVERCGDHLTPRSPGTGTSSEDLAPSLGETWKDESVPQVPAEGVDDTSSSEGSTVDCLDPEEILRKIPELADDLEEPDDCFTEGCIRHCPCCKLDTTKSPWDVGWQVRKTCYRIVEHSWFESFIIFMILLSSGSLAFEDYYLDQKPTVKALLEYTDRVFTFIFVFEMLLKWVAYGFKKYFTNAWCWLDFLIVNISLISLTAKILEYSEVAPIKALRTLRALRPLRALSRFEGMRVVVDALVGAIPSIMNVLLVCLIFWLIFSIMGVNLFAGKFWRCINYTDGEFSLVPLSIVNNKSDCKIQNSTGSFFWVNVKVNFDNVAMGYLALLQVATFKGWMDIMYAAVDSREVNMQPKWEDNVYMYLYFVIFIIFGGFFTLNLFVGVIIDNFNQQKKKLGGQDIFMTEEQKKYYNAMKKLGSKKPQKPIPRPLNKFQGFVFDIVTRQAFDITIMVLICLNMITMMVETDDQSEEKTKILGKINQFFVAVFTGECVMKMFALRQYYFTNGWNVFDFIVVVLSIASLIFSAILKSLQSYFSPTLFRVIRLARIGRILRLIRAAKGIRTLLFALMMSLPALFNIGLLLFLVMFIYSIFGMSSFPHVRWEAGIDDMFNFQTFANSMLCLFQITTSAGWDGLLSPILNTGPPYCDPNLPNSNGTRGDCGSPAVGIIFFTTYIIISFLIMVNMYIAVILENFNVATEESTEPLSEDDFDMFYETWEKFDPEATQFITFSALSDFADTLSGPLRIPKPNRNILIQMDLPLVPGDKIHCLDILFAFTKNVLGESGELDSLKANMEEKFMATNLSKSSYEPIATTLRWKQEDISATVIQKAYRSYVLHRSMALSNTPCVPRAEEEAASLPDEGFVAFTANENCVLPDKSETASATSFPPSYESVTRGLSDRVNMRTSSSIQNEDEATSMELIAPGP
method.notes: Nav1.8 Qube automated patch-clamp assay
Format: cell-based
condition.label: human NaV1.8 stably expressed in HEK 293 cells; automated 384-well patch-clamp; resting or inactivated state not specified
property.name: IC50 (nM)
// return numeric value only (unit: nM, not printed)

Cn1nc(C(NC(=O)[C@@H]2CNC(=O)N2)c2ccc(Cl)cc2)cc1C(F)(F)F (single isomer, unassigned) [Example 75B]	115

[in] Query (compound): C[C@@H]1C[C@H](C(NC(=O)[C@@H]2CNC(=O)N2)c2ccc(F)c(Cl)c2)C[C@H](C)N1CC(F)(F)F (single isomer, unassigned) [Example 15B] ; field requested: IC50
[out] 965

[in] Could you do the same for O=C(NC(c1ccc(Cl)cc1)c1ccc(Cl)cc1)C1CNC(=O)N1CCO (single isomer, unassigned) [Example 21A] , please?
[out] 209

[in] Could you do the same for O=C1NC[C@@H](C(=O)NC(c2ccc(Cl)cc2)c2ncc(Cl)c(C(F)(F)F)n2)N1 (stereo partly shown) , please?
[out] 28

[in] Could you do the same for CC1(C)CC(C(NC(=O)[C@@H]2CNC(=O)N2)c2ccc(Cl)cc2)CCN1CC(F)(F)F (single isomer, unassigned) [Example 91C] , please?
[out] 2960

[in] Could you do the same for O=C1NC[C@@H](C(=O)NC(COc2ccc(F)c(Cl)c2)c2ccc(F)c(Cl)c2)N1 (single isomer, unassigned) [Example 1A] , please?
[out] 4

[in] Could you do the same for O=C1NC[C@@H](C(=O)NC(c2ccc(F)c(Cl)c2)c2csc(C3(C(F)(F)F)CC3)n2)N1 (single isomer, unassigned) [Example 16B] , please?
[out] 14

[in] Could you do the same for O=C1NC[C@@H](C(=O)NC(c2ccc(OC(F)(F)F)nc2)c2ccc(F)c(Cl)c2F)N1 (single isomer, unassigned) [Example 24A] , please?
[out] 3.1

----------
target.under.test: UniProt Q9Y5Y9
method.notes: Nav1.8 Qube automated patch-clamp assay
Assay type: cell-based
condition.label: human NaV1.8 stably expressed in HEK 293 cells; automated 384-well patch-clamp; resting or inactivated state not specified
Method: Compounds were tested on human NaV1.8 and NaV1.5 channels stably expressed in human embryo kidney (HEK) 293 cells. […] For all Qube® experiments offline analysis was used to determine percent inhibition as a function of drug concentration. IC50 values were determined by fitting to the Hill equation.
Note to self: IC50 under 30 nM means true (1), ties and anything higher get false (0).

Record excerpt, results attached:
CN1CCC(C(NC(=O)[C@@H]2CNC(=O)N2)c2ccc(F)c(Cl)c2F)CC1C(F)(F)F (single isomer, unassigned) [Example 78E]	true (1)
O=C1NC[C@@H](C(=O)NC(c2ccc(OCC(F)(F)F)nc2)c2ccc(F)c(Cl)c2F)N1 (single isomer, unassigned) [Example 33A]	true (1)
O=C1NC[C@@H](C(=O)NC(c2ccc(F)c(Cl)c2)C2Cc3c(Cl)cccc32)N1 (single isomer, unassigned) [Example 70A]	true (1)
CC1(C)CC(C(NC(=O)[C@@H]2CNC(=O)N2)c2ccc(F)c(Cl)c2F)C1 (single isomer, unassigned) [Example 30B]	false (0)

[in] # check: IC50 < 30 nM for O=C1NC[C@@H](C(=O)NC(c2ccc(F)c(Cl)c2)c2csc(C3(C(F)(F)F)CC3)n2)N1 (single isomer, unassigned) [Example 16A]
[out] true (1)

[in] Could you do the same for O=C1NC[C@@H](C(=O)NC(c2ccc(Cl)cc2)c2cccc(OC(F)F)n2)N1 (single isomer, unassigned) [Example 74B] , please?
[out] false (0)

Data origin: patent US20230312528A1
